Give viability for every item shown.
MEASUREMENT_PROTOCOL: ovarian cancer cell viability with rucaparib, profiling panel, oncology-focused library, rucaparib conditional (AID 1508598)
CONDITION_PARAMETERS: patient-derived ovarian cancer cells, CellTiter-Glo viability, 144 h; at 5 µM; OCI-P5x cells; with rucaparib 20 µM; hits give low values; 100% = cells with rucaparib alone
Unit % implied. Number only.

# input // lookup viability for C/C(=C\c1csc(C)n1)[C@H]1C[C@@H]2O[C@@H]2CCC[C@H](C)[C@H](O)[C@@H](C)C(=O)C(C)(C)[C@H](O)CC(=O)O1
# output 43.6

# input Another compound to look at: Cc1sc2c(c1C)C(c1ccc(Cl)cc1)=N[C@@H](CC(N)=O)c1nnc(C)n1-2
# output 19

# input Now try CC(C)[C@@]12O[C@@H]1[C@@H]1O[C@]13[C@]1(O[C@@H]1C[C@@H]1C4=C(CC[C@@]13C)C(=O)OC4)[C@@H]2O .
# output 10.3

# input Also, Cn1c(CCCC(=O)O)nc2cc(N(CCCl)CCCl)ccc21 please.
# output 80.1
